Reported inhibition at 10 µg/mL values for the following molecules.
# Tested on: platelet aggregation caused by ADP in platelet-rich plasma (PRP)
# Test summary: Test Example 1: in vitro platelet aggregation inhibitory effect
# Type: cell-based, rat (male Sprague-Dawley)
# Experimental parameters: 10 μg/ml test compound; rat PRP; ADP final concentration 10 μM; maximum platelet aggregation ratio
Counter-ions that a name gives are not always drawn.
Report the value in % with no unit label.

Reference set (2 entries):
O=C(O)CCN1CCN(C/C=C2\CN(C(C(=O)C3CC3)c3ccccc3F)CCC2S)CC1=O (stereo not shown) [Example 19, dihydrochloride] :: 77
O=C(O)c1cnn(C/C=C2/CN(C(C(=O)C3CC3)c3ccccc3F)CCC2S)c1 (stereo not shown) [Example 111, hydrochloride] :: 82

// CN(C/C=C1/CN(C(C(=O)C2CC2)c2ccccc2F)CCC1S)CC(=O)O (stereo not shown) [Example 86, dihydrochloride] : inhibition at 10 µg/mL value = 82

// CN(C/C=C1\CN(C(C(=O)C2CC2)c2ccccc2F)CCC1S)CC(=O)O (stereo not shown) [Example 83, dihydrochloride] : inhibition at 10 µg/mL value = 68

---

Reported inhibition at 10 µg/mL values for the following molecules.
# Tested on: platelet aggregation caused by ADP in platelet-rich plasma (PRP)
# Test summary: Test Example 1: in vitro platelet aggregation inhibitory effect
# Assay type: cell-based, rat (male Sprague-Dawley)
# Experimental parameters: 10 μg/ml test compound; rat PRP; ADP final concentration 10 μM; maximum platelet aggregation ratio
Where a name gives a salt, the structure may show the parent alone.
Report the value in % with no unit label.

CN(C/C=C1/CN(C(C(=O)C2CC2)c2ccccc2F)CCC1S)CCCC(=O)O (stereo not drawn) [Example 91, dihydrochloride] :: 74
O=C(O)CN1CCN(C/C=C2\CN(C(C(=O)C3CC3)c3ccccc3F)CCC2S)CC1=O (stereo not drawn) [Example 15, dihydrochloride] :: 90
COC(=O)CCN1CCN(C/C=C2\CN(C(C(=O)C3CC3)c3ccccc3F)CCC2S)CC1=O (stereo not drawn) [Example 18, dihydrochloride] :: 73
O=C(O)c1cn(C/C=C2\CN(C(C(=O)C3CC3)c3ccccc3F)CCC2S)nn1 (stereo not drawn) [Example 51, hydrochloride] :: 81

// O=C(O)CCN1CCN(C/C=C2\CN(C(C(=O)C3CC3)c3ccccc3F)CCC2S)C(=O)C1 (stereo not drawn) [Example 23, dihydrochloride] : inhibition at 10 µg/mL value = 77

// O=C(O)Cc1cnn(C/C=C2\CN(C(C(=O)C3CC3)c3ccccc3F)CCC2S)c1 (stereo not drawn) [Example 74, hydrochloride] : inhibition at 10 µg/mL value = 80

// CCOC(=O)c1cn(C/C=C2\CN(C(C(=O)C3CC3)c3ccccc3F)CCC2S)nn1 (stereo not drawn) [Example 50, hydrochloride] : inhibition at 10 µg/mL value = 79

// O=C(O)c1cnn(C/C=C2\CN(C(C(=O)C3CC3)c3ccccc3F)CCC2S)c1 (stereo not drawn) [Example 44, hydrochloride] : inhibition at 10 µg/mL value = 81

// CCOC(=O)CCN1CCN(C/C=C2\CN(C(C(=O)C3CC3)c3ccccc3F)CCC2S)C(=O)C1 (stereo not drawn) [Example 22, dihydrochloride] : inhibition at 10 µg/mL value = 67
